biological target: human CD8α/β (human), P01732; experiment: ELISA on CD8αβ
Sequence (P01732 22-182, chain 1 of 2): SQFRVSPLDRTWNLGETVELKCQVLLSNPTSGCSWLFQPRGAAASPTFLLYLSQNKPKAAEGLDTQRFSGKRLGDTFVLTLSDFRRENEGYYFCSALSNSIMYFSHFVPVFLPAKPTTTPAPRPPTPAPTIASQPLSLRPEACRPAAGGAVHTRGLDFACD
Sequence (P10966 22-170, chain 2 of 2, further chain): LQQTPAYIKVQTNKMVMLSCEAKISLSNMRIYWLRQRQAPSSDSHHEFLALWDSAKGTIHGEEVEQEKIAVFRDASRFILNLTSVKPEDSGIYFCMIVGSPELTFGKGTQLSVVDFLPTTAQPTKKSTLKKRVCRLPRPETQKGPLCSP
value.kind: pEC50
Give bare numbers, as −log10 of the molar value.

Q: Dear colleague, I am looking for the recorded pEC50 of the following binder: KHYTN (modifications not checked) [khytn (SEQ ID NO:82)]
Ans: 5.22
